gcPBM binding intensity (ln) reference
# Tested on: PfAP2-LT AP2 domain (GST-tagged)
# Assay method text: gcPBM binding intensity (ln(normalized median fluorescence intensity)); higher = stronger DNA binding
Whole data set: some 25,000 sequences, median “ln(normalized median fluorescence intensity)” near 8.9, cut for the highest 2% near 10. This is one part of a sample in which the highest values are shown more often than they occur.
Enter the number alone.

Specify measured gcPBM binding intensity (ln) for TAATATAAAGAAAAGGAACACACAAATATATATATA [CACACA_site8049] .
9.04

Specify measured gcPBM binding intensity (ln) for TATTAATACGGACACACACACACACTAGATAAAATA [CACACA_site4295] .
10.1

Specify measured gcPBM binding intensity (ln) for TGTTTATTTAATAATATTTTTTTTTTTATTATATTA [XGTACX_negctrl_site56] .
8.31

Specify measured gcPBM binding intensity (ln) for ATATAAAGAAAAGGAACACACAAATATATATATATA [CACACA_site463] .
9.56

Specify measured gcPBM binding intensity (ln) for ATTTTTTTTTTTTTTTTTCATTTTTTTTTTTTTTTT [CACACA_negctrl_site1204] .
8.62

Specify measured gcPBM binding intensity (ln) for ACCATATAAATAAACACACACACACGGATATAAATA [CACACA_site7157] .
10.1

Specify measured gcPBM binding intensity (ln) for TAGGAAAAGAAAAGCACACACATAAATAGATATATA [CACACA_site6382] .
9.43

Specify measured gcPBM binding intensity (ln) for AATAAAAAGGAACACACACACACACGGATATAAATA [CACACA_site7658] .
10.3

Specify measured gcPBM binding intensity (ln) for GCTAAAAGTATATGCACACACATATAGATGCACATA [CACACA_site6868] .
9.34

Each recorded value in this set is attributed to the supplement of paper PMC11417369.
